Multiple publications report Ki for 5-hydroxytryptamine receptor 1A (Homo sapiens, UniProt P08908); what follows is a combined list.
# condition met = Ki below 60 nM (exclusive); condition not met = Ki at/above 60 nM

>>> class_name("COc1ccc2c(=O)c3cc(CN4CCN(C)CC4)ccc3oc2c1.Cl.Cl")
"condition not met"
>>> class_name("CN1CCC(c2c[nH]c3ccc(NC(=O)C4CCC4)nc23)CC1")
"condition not met"
>>> class_name("O=C1c2ccccc2S(=O)(=O)N1CCCCCCN1CCN(c2nsc3ccccc23)CC1")
"condition met"
>>> class_name("NC(=O)[C@@H]1Cc2ccccc2CN1C(=O)CCCCCN1CCN(c2ccccc2O)CC1")
"condition not met"
>>> class_name("CCCCCCC/C=C/C(=O)CCc1ccc(O)c(OC)c1")
"condition not met"
>>> class_name("Fc1ccc2c(c1)[nH]cc2[C@H]1CC[C@H](N2CCN(c3cccc4[nH]ccc34)CC2)CC1")
"condition met"
>>> class_name("O=C(NC1CCc2ccc(CCN3CCN(c4nsc5ccccc45)CC3)cc21)c1ccc(F)cc1 (stereo not given)")
"condition not met"
>>> class_name("O=c1c2ccccc2ncn1CCCCCN1CCN(c2ccc(Cl)cc2)CC1")
"condition met"
>>> class_name("COc1ccccc1N1CCN(CCCCCCNS(=O)(=O)c2ccc3ccccc3c2)CC1")
"condition met"
>>> class_name("O[C@@H](COc1cccc2[nH]ccc12)CN1CC[C@@H](c2ccc(F)cc2)[C@H](COc2ccc3c(c2)OCO3)C1")
"condition met"

Does the reported Ki of the following compound sit strictly below 60 nM? COc1ccccc1N1CCN(CCCCCC(=O)NCc2ccncc2)CC1
condition met

Does the reported Ki of the following compound sit strictly below 60 nM? COc1ccccc1OCCN[C@H]1CC[C@H](c2c[nH]c3ccc(F)cc32)CC1
condition met

====

pKi: −log10 of the molar value.
Multiple publications report pKi for 5-hydroxytryptamine receptor 1A (Homo sapiens, UniProt P08908); what follows is a combined list.
Label rule, in plain words: pKi of 7 and up is t, under 7 is f.

>>> class_name("Cc1cc(OCCCCN2CCN(c3cnccn3)CC2)c2c(C)cc(=O)oc2c1")
"t"
>>> class_name("N#Cc1cc2c(OCCN3CCC(Oc4ccc5c(c4)NC(=O)CO5)CC3)cccc2[nH]1")
"t"
>>> class_name("COc1ccccc1OCCNCC1CCC(c2ccccc2)(c2ccccc2)O1 (stereo not given)")
"t"
>>> class_name("NC(=O)[C@@H]1Cc2ccccc2CN1C(=O)CCCCCN1CCN(c2cccc(Cl)c2Cl)CC1")
"t"
>>> class_name("O=C1c2ccccc2S(=O)(=O)N1CCCCCN1CCN(c2cccc3ccccc23)CC1")
"t"

Is pKi for COc1cc(Cl)ccc1N1CCN(CCC(=O)c2csc3ccccc23)CC1 at or above 7?
f

Is pKi for CC(=O)c1c(C)cc2oc(=O)cc(C)c2c1OCCCCN1CCN(c2cnccn2)CC1 at or above 7?
t

Is pKi for O=C1c2cccc3cccc(c23)N1CCCCCCN1CCN(c2cccc(Cl)c2)CC1 at or above 7?
t

Is pKi for COc1ccc2[nH]c(C(=O)NCCC(F)CN3CCN(c4ccccc4OC)CC3)cc2c1 (stereo not given) at or above 7?
f

Is pKi for Cc1ccc2c3c(ccc2n1)OC[C@H](CN1CCN(c2ccc4cc(C#N)ccc4n2)C[C@H]1C)O3 at or above 7?
t

Is pKi for Cc1ccc(Sc2c(C)cccc2N2CCNCC2)c(C)c1 at or above 7?
f

Is pKi for CCCN1CCc2cccc3c2[C@H]1Cc1cccc(NC(=O)CCCCC2CCSS2)c1-3 (stereo not given in full) at or above 7?
f

Is pKi for O=C(CCN1CCN(c2ccccc2Cl)CC1)c1ccccc1 at or above 7?
f

====

- Measurement target: 5-hydroxytryptamine receptor 1A (Homo sapiens)
- Sequence (P08908 whole entry): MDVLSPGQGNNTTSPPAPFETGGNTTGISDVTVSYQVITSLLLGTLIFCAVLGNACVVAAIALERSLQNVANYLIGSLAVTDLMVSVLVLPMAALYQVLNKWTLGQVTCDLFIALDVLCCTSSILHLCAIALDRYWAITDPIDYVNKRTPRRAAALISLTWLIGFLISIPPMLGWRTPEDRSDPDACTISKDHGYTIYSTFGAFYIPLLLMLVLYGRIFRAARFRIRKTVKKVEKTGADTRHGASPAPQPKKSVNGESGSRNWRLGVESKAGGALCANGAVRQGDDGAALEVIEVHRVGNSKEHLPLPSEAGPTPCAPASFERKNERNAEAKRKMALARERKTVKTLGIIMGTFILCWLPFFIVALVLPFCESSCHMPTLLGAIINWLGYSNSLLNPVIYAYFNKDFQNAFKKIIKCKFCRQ
Multiple publications report Ki for 5-hydroxytryptamine receptor 1A (Homo sapiens); what follows is a combined list.
Answers are plain numbers, in nM.

Example entries and their recorded answers appear below.
>>> measured("CCC(Oc1cccc(Cl)c1F)c1nc(N)nc(N2CCN(C)CC2)n1 (stereo not given)")
2940
>>> measured("O=C1c2ccccc2S(=O)(=O)N1CCCCCCN1CCN(c2cccc(Cl)c2Cl)CC1")
58
>>> measured("O=S(=O)(c1cccc2ccccc12)c1n[nH]c2ccc(N3CCNCC3)cc12")
573
>>> measured("N#Cc1ccc(CNC(=O)CCOCCN2CCN(c3cccnc3-c3ccccc3)CC2)cc1")
3840
>>> measured("CCCN(CCCc1c[nH]c2ccc(F)cc12)C1COc2ccc3ncccc3c2C1 (racemic)")
63.5
>>> measured("O=C(NC1CCc2cc(CCN3CCN(c4nsc5ccccc45)CC3)ccc21)c1cccnc1 (stereo not given)")
7.7
>>> measured("O=C(CCCN1CCN(c2ccc(Cl)cc2)CC1)c1ccc(F)cc1")
90.9
>>> measured("Cc1ccc(Sc2ccccc2N2CCNCC2)cc1.Cl")
44

Give Ki for each of the items listed below.
1. Cc1ccc(Sc2ccc(Cl)cc2)c(N2CCNCC2)c1
2. N#Cc1ccc2[nH]cc(CCCNC3COc4ccc5c(c4C3)C(=O)NC5)c2c1 (racemic)
3. O=C([C@@H]1Cc2ccccc2CN1C(=O)CCCCCN1CCN(c2ccccc2-c2ccccc2)CC1)N1CCCCC1
4. COc1cccc(OC)c1OCCNCCOc1ccccc1OCc1cccc([N+](=O)[O-])c1
5. C[C@@H](CN(C(=O)c1ccc(C#N)cc1)c1ccccn1)N1CCN(c2cccc3c2OCCO3)CC1
6. O=C(NC1CCc2ccc(CCN3CCN(c4nsc5ccccc45)CC3)cc21)c1cccnc1 (stereo not given)
7. COc1cc2ncnc(N3CCC(CN4CCN(c5ccc(O)cc5)CC4)C3)c2cc1OC (stereo not given)
8. Fc1ccc2[nH]cc(CCCNC3COc4c(ccc5ncccc45)C3)c2c1 (single isomer, unassigned; (-))

[2500, 36, 19, 20.9, 9.2, 4.5, 468, 67.8]

====

Sequence of the target: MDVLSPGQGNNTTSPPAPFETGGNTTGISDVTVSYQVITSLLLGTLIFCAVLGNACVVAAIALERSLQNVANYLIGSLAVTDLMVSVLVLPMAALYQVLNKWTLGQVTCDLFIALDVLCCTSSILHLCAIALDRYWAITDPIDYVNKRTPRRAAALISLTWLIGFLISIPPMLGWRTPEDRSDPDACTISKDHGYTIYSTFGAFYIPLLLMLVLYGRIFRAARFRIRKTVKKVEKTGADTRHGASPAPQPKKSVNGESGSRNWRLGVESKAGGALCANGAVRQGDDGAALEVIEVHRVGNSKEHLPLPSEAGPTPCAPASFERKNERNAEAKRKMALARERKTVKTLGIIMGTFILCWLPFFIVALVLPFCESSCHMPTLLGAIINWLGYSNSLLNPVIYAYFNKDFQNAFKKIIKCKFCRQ
Multiple publications report Ki for the protein given by its sequence; what follows is a combined list.
Numbers only, in nM.

Example entries and their recorded answers appear below.
>>> measured("COc1ccccc1OCCNCC1CCC(c2ccccc2)(c2ccccc2)C1=O (stereo not given)")
3.47
>>> measured("O=C(NCCCCN1CCN(c2cccc(Cl)c2Cl)CC1)c1ccc(-c2ccccn2)cc1")
23.4
>>> measured("Fc1ccc2[nH]cc(CCNCC3CNc4ccccc4O3)c2c1 (stereo not given)")
11

Give Ki for each of the items listed below.
1. CCCN(CCCc1c[nH]c2ccc(F)cc12)[C@H]1COc2cccc(C(N)=O)c2C1
2. CN1CCN(c2nccc3cc4c(cc23)N(C(=O)c2ccc(Cl)cc2)CC4)CC1

1. 0.93
2. 0.794

====

- Measurement target: 5-hydroxytryptamine receptor 1A (Homo sapiens)
- Sequence (P08908 whole entry): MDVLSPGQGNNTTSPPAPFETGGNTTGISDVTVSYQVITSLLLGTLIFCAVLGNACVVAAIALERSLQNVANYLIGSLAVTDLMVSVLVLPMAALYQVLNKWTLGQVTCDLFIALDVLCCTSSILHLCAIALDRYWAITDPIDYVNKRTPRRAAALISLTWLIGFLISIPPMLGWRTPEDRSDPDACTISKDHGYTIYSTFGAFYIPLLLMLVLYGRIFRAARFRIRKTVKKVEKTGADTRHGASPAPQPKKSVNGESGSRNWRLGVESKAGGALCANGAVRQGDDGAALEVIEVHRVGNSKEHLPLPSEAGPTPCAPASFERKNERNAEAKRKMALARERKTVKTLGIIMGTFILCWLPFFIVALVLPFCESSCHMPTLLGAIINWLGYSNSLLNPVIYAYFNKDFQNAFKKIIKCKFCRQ
Multiple publications report Ki for 5-hydroxytryptamine receptor 1A (Homo sapiens); what follows is a combined list.
# true (1) = Ki below 5000 nM (exclusive); false (0) = Ki at/above 5000 nM

Here's what some known entries look like.
>>> class_name("O=C1Nc2ccccc2C12CCN(CCN1CCN(c3ccccc3)CC1)C2 (centres undefined)")
"false (0)"
>>> class_name("CN1CCN(CCCN2C(=O)c3ccccc3/C=C\\c3ccccc32)CC1")
"false (0)"
>>> class_name("Cc1ccc2c(OCCN3CCC(Cc4cccc(N5CCN[C@H](C)C5)c4)CC3)cccc2n1")
"true (1)"
>>> class_name("N[C@@H]1CCN(c2ccc3[nH]nc(S(=O)(=O)c4cccc5ccccc45)c3c2)C1")
"true (1)"
>>> class_name("Cc1ccc2c(OCCN3CCC(Cc4cccc(N5CCN(C)CC5)c4)CC3)cccc2n1")
"true (1)"
>>> class_name("COc1ccccc1N1CCN(C[C@H]2CCC(c3ccccc3)(c3ccccc3)[C@H]2O)CC1 (relative stereo)")
"true (1)"
>>> class_name("Cc1ccc2c(N3CCN(CCc4ccc5c(c4)NC(=O)CO5)[C@H](C)C3)cccc2n1")
"true (1)"

Consider the record given below.
Does the reported Ki of the following molecule sit strictly below 5000 nM? O=C1c2ccccc2S(=O)(=O)N1CCCCN1CCN(c2cccc(Cl)c2Cl)CC1
true (1)
